assay: chemical genetic growth profiling, strain panel (AID 1159580);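 further: tested at 20 µM; growth read once vehicle control cultures reached saturation at 30 °C; 1 = growth at the plate median or of vehicle wells; lower values mean less growth of the strain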; details: S. cerevisiae deletion strains, growth OD, locus YMR129W, stronger effect = lower value
Screen size: about 5,500 compounds; about 2,000 (36%) were called active. Not shown: some 18% with an inconclusive outcome. The list shows a part of the results.
Would you kindly list normalized growth for each of these compounds?
Answer as a number with no unit attached.

Looking for the measured normalized growth of C#C[C@]1(O)CCC2C3CCc4cc(O)ccc4C3CC[C@@]21C (some centres not stated) , can you help?
1.02

How about this compound: C=CCc1cc(OC)c2c(c1OC)OCO2
0.921

Try O=C(O)P(=O)(O)O next.
0.984

Moving on to C#C[C@]1(O)CCC2C3CCc4cc(OC)ccc4C3CC[C@@]21C (some centres not stated)
0.977

What about this compound? CC(Cc1ccc(O)c(O)c1)(NN)C(=O)O (configuration not stated)
0.997

Now the compound C[C@]12CCC3c4ccc(OS(=O)(=O)O)cc4CCC3C1CCC2=O (some centres not stated)
1.01

What do you have for O=C(O)CNCP(=O)(O)O ?
1.01
